All values here come from the supplement of paper PMC7877785.

Test: self-splicing fitness, log relative to wild type (ln ratio); higher = more splicing; Tetrahymena group I intron in knt gene, E. coli kanamycin selection, DiMSum; sequences stand for … in CUCUCU…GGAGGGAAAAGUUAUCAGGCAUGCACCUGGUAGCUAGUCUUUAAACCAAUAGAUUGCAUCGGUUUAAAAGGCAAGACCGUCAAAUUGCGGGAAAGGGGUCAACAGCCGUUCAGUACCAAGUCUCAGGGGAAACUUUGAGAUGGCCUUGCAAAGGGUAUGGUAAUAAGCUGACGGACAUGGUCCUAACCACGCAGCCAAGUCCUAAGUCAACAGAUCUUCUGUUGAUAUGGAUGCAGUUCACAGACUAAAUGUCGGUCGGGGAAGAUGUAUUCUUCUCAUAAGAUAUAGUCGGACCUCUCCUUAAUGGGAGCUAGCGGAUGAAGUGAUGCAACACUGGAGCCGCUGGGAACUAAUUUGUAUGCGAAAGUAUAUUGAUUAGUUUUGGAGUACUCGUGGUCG;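 further: selection with 25 µg/mL kanamycin versus none on LB agar overnight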
Conditions: 30 °C
endpoint-label: self-splicing fitness (ln)

CCCAAGCAAUAUUACGGCAU | -3.63
CGACAGCAAUAUUACGCUGA | -3.49
ACUCAGCAAUAUUACGAGUU | -4.72
UGCAAGCAAUAUUACGGGUG | -0.825
ACCCAGCAAUAUUACGUCGG | -2.15
UAGAAGCAAUAUUACGAACC | -2.02
CAGUAGCAAUAUUACGUAGG | -0.361
CUCAAGCAAUAUUACGAGCU | -4.33
UUUUAGCAAUAUUACGGUCA | -1.25
AAAUAGCAAUAUUACGCUUU | -2.63
UCCCAGCAAUAUUACGCGCG | -3.27
GACCAGCAAUAUUACGUCUC | -0.562
GGCGAGCAAUAUUACGAAUG | -3.21
AUAAAGCAAUAUUACGUUUG | -2.84
AUCUAGCAAUAUUACGCUGU | -1.61
UGCUAGCAAUAUUACGUGUC | -3.7
ACCCAGCAAUAUUACGCAUC | -1.33
CAGUAGCAAUAUUACGGUUU | -3.21
ACACAGCAAUAUUACGGCAA | -1.49
AAACAGCAAUAUUACGGCAG | -2.08
AUUAAGCAAUAUUACGCACA | -0.525
ACUAAGCAAUAUUACGUGGG | -2.98
GCACAGCAAUAUUACGUUUA | -1.19
ACGAAGCAAUAUUACGUCCU | -0.493
CCGCAGCAAUAUUACGACCA | -3.34
CGGGAGCAAUAUUACGGCCU | -3.25
UCCCAGCAAUAUUACGAACU | -3.52
CCAGAGCAAUAUUACGGCGA | -3.16
GAUCAGCAAUAUUACGUGGC | -2.95
ACCCAGCAAUAUUACGUCUG | -3.16
GCCUAGCAAUAUUACGCUCC | -1.64
GGAAAGCAAUAUUACGAGUA | -2.38
CCCCAGCAAUAUUACGUAAU | -3.53
CGGUAGCAAUAUUACGAUGU | -0.932
GCGCAGCAAUAUUACGGAGC | -2.35
ACUAAGCAAUAUUACGAAGA | -1.65
AACGAGCAAUAUUACGACGA | -2.08
CCACAGCAAUAUUACGCUUC | -3.25
CGUUAGCAAUAUUACGAAGG | -1.69
ACAUAGCAAUAUUACGCGCC | -0.408
UUCCAGCAAUAUUACGAGGA | -1.83
CAUUAGCAAUAUUACGAGUA | -1.59
CGGGAGCAAUAUUACGCUGU | -2.76
CUACAGCAAUAUUACGUGAC | -1.02
UGCCAGCAAUAUUACGGCGA | -0.122
AAAGAGCAAUAUUACGAUCA | -3.02
AUGAAGCAAUAUUACGCAUA | -0.0747
CCGAAGCAAUAUUACGGCCA | -2.76
ACAUAGCAAUAUUACGAAGA | -3.19
ACGCAGCAAUAUUACGUGGA | -3.14
GCAUAGCAAUAUUACGGAAU | -2.21
UUAGAGCAAUAUUACGGACG | -1.73
UCUCAGCAAUAUUACGUGUU | -3.47
GUAUAGCAAUAUUACGUGCU | -2.77

---

Test: self-splicing fitness, log relative to wild type (ln ratio); higher = more splicing; Tetrahymena group I intron in knt gene, E. coli kanamycin selection, DiMSum; sequences stand for … in CUCUCU…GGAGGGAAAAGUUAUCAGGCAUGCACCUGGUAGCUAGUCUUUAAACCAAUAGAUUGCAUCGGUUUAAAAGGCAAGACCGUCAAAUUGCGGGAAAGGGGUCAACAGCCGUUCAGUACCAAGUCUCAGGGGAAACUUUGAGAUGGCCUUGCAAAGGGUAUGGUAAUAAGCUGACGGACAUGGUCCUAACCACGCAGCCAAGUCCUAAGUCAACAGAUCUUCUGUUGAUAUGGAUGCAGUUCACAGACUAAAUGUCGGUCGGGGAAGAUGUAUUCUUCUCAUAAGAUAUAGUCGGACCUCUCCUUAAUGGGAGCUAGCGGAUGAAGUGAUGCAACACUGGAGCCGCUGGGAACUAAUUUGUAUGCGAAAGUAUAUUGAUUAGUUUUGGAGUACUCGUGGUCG
Details: 30 °C
// reported self-splicing fitness (ln) per item
endpoint-label: self-splicing fitness (ln)

AGCAAGCAAUAUUACGCUUA | -2.94
UUUGAGCAAUAUUACGUCGA | -2.46
CCGCAGCAAUAUUACGCGGA | -3.03
GGGAAGCAAUAUUACGGCAA | -0.863
AUUUAGCAAUAUUACGAAAC | -2.83
UCCAAGCAAUAUUACGGAGA | -0.684
AGCGAGCAAUAUUACGAUUC | -1.93

---

Assay: self-splicing fitness, log relative to wild type (ln ratio); higher = more splicing; Tetrahymena group I intron in knt gene, E. coli kanamycin selection, DiMSum; sequences stand for … in CUCUCU…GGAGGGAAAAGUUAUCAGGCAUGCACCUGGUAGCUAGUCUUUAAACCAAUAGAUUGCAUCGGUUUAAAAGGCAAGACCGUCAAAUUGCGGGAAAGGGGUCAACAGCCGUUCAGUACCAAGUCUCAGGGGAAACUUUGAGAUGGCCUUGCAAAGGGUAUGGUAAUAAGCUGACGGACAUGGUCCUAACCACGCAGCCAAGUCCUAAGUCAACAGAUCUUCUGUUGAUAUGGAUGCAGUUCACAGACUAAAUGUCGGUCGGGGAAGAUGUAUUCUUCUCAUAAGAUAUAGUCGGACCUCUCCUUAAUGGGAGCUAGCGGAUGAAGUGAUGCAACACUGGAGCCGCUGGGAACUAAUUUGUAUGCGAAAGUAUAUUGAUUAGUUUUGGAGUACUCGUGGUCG
Conditions: 30 °C
endpoint-label: self-splicing fitness (ln)

AGAAAGCAAUAUUACGCAUG | -1.66
CCCGAGCAAUAUUACGUCCC | -2.8
GGGUAGCAAUAUUACGCUGU | -3.54

---

Assay: self-splicing fitness, log relative to wild type (ln ratio); higher = more splicing; Tetrahymena group I intron in knt gene, E. coli kanamycin selection, DiMSum; sequences stand for … in CUCUCU…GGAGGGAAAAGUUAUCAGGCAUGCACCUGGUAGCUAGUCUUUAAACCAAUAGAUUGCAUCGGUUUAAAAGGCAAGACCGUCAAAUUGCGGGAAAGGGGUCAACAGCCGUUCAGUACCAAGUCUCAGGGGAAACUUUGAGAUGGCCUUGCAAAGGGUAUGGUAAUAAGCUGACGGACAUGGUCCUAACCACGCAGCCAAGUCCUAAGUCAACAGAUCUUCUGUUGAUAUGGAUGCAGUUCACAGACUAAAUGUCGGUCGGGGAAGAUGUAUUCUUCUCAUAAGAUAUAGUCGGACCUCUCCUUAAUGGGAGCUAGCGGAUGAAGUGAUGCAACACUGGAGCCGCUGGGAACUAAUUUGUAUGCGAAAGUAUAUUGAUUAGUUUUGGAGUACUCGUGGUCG
Conditions: 30 °C
// Condition not met strictly below -2 in self-splicing fitness (ln); Condition met otherwise

GUGUAGCAAUAUUACGAGUU | Condition not met
CAAAAGCAAUAUUACGUGCU | Condition not met
GCAGAGCAAUAUUACGAAAC | Condition not met
CUUUAGCAAUAUUACGGUAG | Condition met
CUGGAGCAAUAUUACGACUG | Condition met
CCGGAGCAAUAUUACGACUG | Condition met
UCACAGCAAUAUUACGGAAU | Condition not met
CGAGAGCAAUAUUACGGACG | Condition met
UCAUAGCAAUAUUACGGCUC | Condition not met
GCCAAGCAAUAUUACGAAGG | Condition not met
AGGGAGCAAUAUUACGUAUU | Condition not met
AAAAAGCAAUAUUACGCUCC | Condition met
CGAUAGCAAUAUUACGGCAA | Condition not met
GCUCAGCAAUAUUACGCAAG | Condition not met
GCCUAGCAAUAUUACGAGUG | Condition not met
GAAGAGCAAUAUUACGCAGG | Condition met
UCAUAGCAAUAUUACGCUUU | Condition not met
UAGCAGCAAUAUUACGGCCG | Condition met
GGCAAGCAAUAUUACGAUAA | Condition met
UACGAGCAAUAUUACGUUUC | Condition not met
ACUAAGCAAUAUUACGCUGG | Condition not met
AGCCAGCAAUAUUACGUGCG | Condition met
AGAUAGCAAUAUUACGUAGG | Condition not met
AGACAGCAAUAUUACGACUU | Condition met
GAGGAGCAAUAUUACGUGGA | Condition not met
AAGCAGCAAUAUUACGCCCG | Condition met
AUACAGCAAUAUUACGGCUU | Condition met
GAGCAGCAAUAUUACGAGCA | Condition met
